biological target: human FSH receptor (Homo sapiens, UniProt P23945); construct: host or cells: CHO-K1 (CHO FSH-R 6CRE-Luc, 1D7 cells); test: FSH receptor-dependent CRE-luciferase reporter gene assay (CHO FSH-R 6CRE-Luc cells); assay type: cell-based; details: 2-dose format; test concentration in parentheses = 30 μM; percent inhibition of response to EC50 of FSH; read-out: CRE % inhibition
Sequence (P23945 18-695): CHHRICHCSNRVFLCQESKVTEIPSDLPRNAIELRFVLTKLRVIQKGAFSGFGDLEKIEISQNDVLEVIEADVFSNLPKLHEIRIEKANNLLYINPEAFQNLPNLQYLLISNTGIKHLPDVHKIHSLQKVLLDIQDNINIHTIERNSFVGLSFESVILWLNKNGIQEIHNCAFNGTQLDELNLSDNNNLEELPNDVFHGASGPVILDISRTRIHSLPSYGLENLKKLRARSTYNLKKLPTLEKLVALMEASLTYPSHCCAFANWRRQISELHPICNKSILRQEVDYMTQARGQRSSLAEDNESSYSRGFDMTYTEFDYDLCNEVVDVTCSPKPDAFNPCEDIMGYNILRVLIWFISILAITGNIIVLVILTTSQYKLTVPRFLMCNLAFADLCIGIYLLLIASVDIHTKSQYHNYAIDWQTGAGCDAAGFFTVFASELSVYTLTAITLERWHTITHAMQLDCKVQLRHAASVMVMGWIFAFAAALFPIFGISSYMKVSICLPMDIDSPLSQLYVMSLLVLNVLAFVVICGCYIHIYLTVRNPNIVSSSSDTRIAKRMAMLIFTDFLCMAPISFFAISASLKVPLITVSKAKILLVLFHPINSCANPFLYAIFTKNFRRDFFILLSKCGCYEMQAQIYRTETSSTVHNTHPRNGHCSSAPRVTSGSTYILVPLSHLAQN
Rule: inhibition at 30 µM under 20% gives No, otherwise Yes.

Example cases with answers are listed next.
COc1cccc(CNc2ccc(C(=O)N3Cc4ccc(C(=O)NCc5cccnc5)n4Cc4ccccc43)cn2)c1 [Example 129]
No
O=C(NCc1cccnc1)c1ccc2n1Cc1ccccc1N(C(=O)c1ccccc1F)C2 [Example 97]
No
O=C(NCc1cccnc1)c1ccc2n1Cc1ccccc1N(C(=O)c1ccc(Cl)cc1)C2 [Example 91]
Yes

Query: Test whether the compound O=C(NCc1cccnc1)c1ccc2n1Cc1ccccc1N(S(=O)(=O)c1ccc(-c3ccccc3Cl)cc1)C2 [Example 72] records inhibition at 30 µM of 20% or higher.
Response: No

Query: Test whether the compound O=C(NCc1cccnc1)c1ccc2n1Cc1ccccc1N(C(=O)Cc1ccc(-c3ccccc3)cc1)C2 [Example 143] records inhibition at 30 µM of 20% or higher.
Response: Yes

Query: Test whether the compound O=C(NCc1cccnc1)c1ccc2n1Cc1ccccc1N(C(=O)c1ccc(OCc3ccccc3)nc1)C2 [Example 134] records inhibition at 30 µM of 20% or higher.
Response: No

Query: Test whether the compound COc1ccccc1-c1ccc(S(=O)(=O)N2Cc3ccc(C(=O)NCc4cccnc4)n3Cc3ccccc32)cc1 [Example 71] records inhibition at 30 µM of 20% or higher.
Response: No

====

target: human FSH receptor (Homo sapiens); experiment: FSH receptor-dependent CRE-luciferase reporter gene assay (CHO FSH-R 6CRE-Luc cells); settings: dose-response format in presence of EC50 of purified human FSH; * n=3, ** n=2 averages
# IC50 values compiled below
The figure you give is taken to be in µM; do not add the unit.

O=C(NCc1cccnc1)c1ccc2n1Cc1ccccc1N(C(=O)c1ccc(C(F)(F)F)cc1)C2
17.8
CCOc1ccccc1-c1ccc(C(=O)N2Cc3ccc(C(=O)NCc4cccnc4)n3Cc3ccccc32)cc1
1.45
O=C(NCc1cccnc1)c1ccc2n1Cc1ccccc1N(C(=O)c1cccc(C(F)(F)F)c1)C2
9.9
Cc1cc(C(=O)N2Cc3ccc(C(=O)NCc4cccnc4)n3Cc3ccccc32)ccc1-c1ccccc1C(F)(F)F
13.8
COc1ccccc1-c1ccc(C(=O)N2Cc3ccc(C(=O)NCc4cccnc4)n3Cc3ccccc32)cc1C
0.65

Let's switch to this compound now.
Query: Please state recorded IC50 (tested on human FSH receptor (Homo sapiens)) of O=C(NCc1cccnc1)c1ccc2n1Cc1ccccc1N(C(=O)c1ccc(OC(F)(F)F)cc1)C2
Response: 6.44

====

molecular target: human FSH receptor (Homo sapiens, UniProt P23945); construct: host or cells: CHO-K1 (CHO FSH-R 6CRE-Luc, 1D7 cells); test: FSH receptor-dependent CRE-luciferase reporter gene assay (CHO FSH-R 6CRE-Luc cells); type: cell-based; conditions: 2-dose format; test concentration in parentheses = 30 μM; percent inhibition of response to EC50 of FSH; read-out: CRE % inhibition
assay.metric: inhibition at 30 µM

Answered examples (4):
O=C(NCc1cccnc1)c1ccc2n1Cc1ccccc1N(C(=O)COc1ccccc1)C2
41%
O=C(NCc1cccnc1)c1ccc2n1Cc1ccccc1N(C(=O)c1ccc(Cl)nc1)C2
24%
COC(=O)c1ccc(C(=O)N2Cc3ccc(C(=O)NCc4cccnc4)n3Cc3ccccc32)cc1
38%
O=C(NCc1cccnc1)c1ccc2n1Cc1ccccc1N(C(=O)c1ccc(-c3cncnc3)cc1)C2
21%

Query: Which measured inhibition at 30 µM value corresponds to O=C(NCc1cccnc1)c1ccc2n1Cc1ccccc1N(C(=O)c1cccc3ccccc13)C2 ?
Response: 40%

Query: Which measured inhibition at 30 µM value corresponds to O=C(NCc1cccnc1)c1ccc2n1Cc1ccccc1N(C(=O)c1ccc(NCCCc3ccccc3)nc1)C2 ?
Response: 9%

Query: Which measured inhibition at 30 µM value corresponds to CC(Oc1ccccc1)C(=O)N1Cc2ccc(C(=O)NCc3cccnc3)n2Cc2ccccc21 (stereo not shown) ?
Response: 16%

Query: Which measured inhibition at 30 µM value corresponds to CC(C)(C)CC(=O)N1Cc2ccc(C(=O)NCc3cccnc3)n2Cc2ccccc21 ?
Response: 35%

Query: Which measured inhibition at 30 µM value corresponds to O=C(NCc1cccnc1)c1ccc2n1Cc1ccccc1N(C(=O)c1cc(F)cc(F)c1)C2 ?
Response: 45%

Query: Which measured inhibition at 30 µM value corresponds to O=C(NCc1cccnc1)c1ccc2n1Cc1ccccc1N(C(=O)CSc1ccc(Br)cc1)C2 ?
Response: 32%

Query: Which measured inhibition at 30 µM value corresponds to O=C(NCc1cccnc1)c1ccc2n1Cc1ccccc1N(C(=O)c1ccccc1C(F)(F)F)C2 ?
Response: 2.4%

Query: Which measured inhibition at 30 µM value corresponds to O=C(NCc1cccnc1)c1ccc2n1Cc1ccccc1N(C(=O)c1ccc(NCCO)nc1)C2 ?
Response: 26%

Query: Which measured inhibition at 30 µM value corresponds to O=C(NCc1cccnc1)c1ccc2n1Cc1ccccc1N(C(=O)c1c(F)cccc1F)C2 ?
Response: 40%

Query: Which measured inhibition at 30 µM value corresponds to O=C(NCc1cccnc1)c1ccc2n1Cc1ccccc1N(C(=O)c1cccs1)C2 ?
Response: 34%

Query: Which measured inhibition at 30 µM value corresponds to Cc1ccccc1C(=O)N1Cc2ccc(C(=O)NCc3cccnc3)n2Cc2ccccc21 ?
Response: 17%

Query: Which measured inhibition at 30 µM value corresponds to O=C(c1ccccc1)c1ccccc1-c1ccc(C(=O)N2Cc3ccc(C(=O)NCc4cccnc4)n3Cc3ccccc32)cc1 ?
Response: 29%

The measured values listed here are drawn from patent US7678787B2.
